Measured one-hybrid fitness for binding NBS DNA by item
B1: Caulobacter ParB omega fusion; a variant is named by its letters at X, in order, B8GW30 (parent)
chain: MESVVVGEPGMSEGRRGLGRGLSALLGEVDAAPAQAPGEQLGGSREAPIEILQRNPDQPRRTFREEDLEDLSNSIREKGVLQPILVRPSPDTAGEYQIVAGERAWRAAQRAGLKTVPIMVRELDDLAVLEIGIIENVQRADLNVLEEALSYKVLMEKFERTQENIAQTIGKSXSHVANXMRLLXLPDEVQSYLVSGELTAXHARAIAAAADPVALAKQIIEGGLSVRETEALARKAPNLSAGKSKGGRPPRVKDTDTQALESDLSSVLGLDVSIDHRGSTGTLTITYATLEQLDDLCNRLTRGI

Variants of: B1
Test: one-hybrid fitness for binding NBS DNA (the Noc-binding site; scaled: cognate 1, non-cognate 0); higher = stronger binding
Settings: with NBS DNA site
Whole data set: some 81,000 sequences, median “one-hybrid fitness for binding NBS DNA” near -0.1, cut for the highest 2% near 0.36. This is one part of a sample in which the highest values are shown more often than they occur.

Recorded results for 6 variants are shown here.
| MUTATION ID | one-hybrid fitness for binding NBS DNA |
| --- | --- |
| QGRR | 0.33 |
| QMSN | ≤ 0.2 |
| QITR | 0.417 |
| PPVI | ≤ 0.2 |
| DGQC | ≤ 0.2 |
| GSQF | ≤ 0.2 |

Which one-hybrid fitness for binding NBS DNA is reported for this variant? QSYR
0.458

Please answer likewise for QSYD
≤ 0.2

// query: LPGR
≤ 0.2

Try the variant QATP
≤ 0.2

Would you mind doing SVRD as well?
≤ 0.2

Repeat for the following variant: GMFV
≤ 0.2

Try the variant QARQ
0.332

Param item: QMSD
≤ 0.2

Also QMSR , if possible.
0.557

Entry QAKD please
≤ 0.2

Queued: IAWR
≤ 0.2

Same lookup for QATN , please.
≤ 0.2
